Where do these numbers come from? They come from ChEMBL document CHEMBL1201862.

Test system: HOP-62
Test Protocol: NCI tumour cell line growth inhibition, 48 h
The source made the active and inactive calls. No stated cut-off is given here; in the data, active = GI50 up to about 1.1 µM and inactive = higher. Peptide text beside a SMILES is read from it. * marks the point of attachment. Boc = CC(C)(C)OC(=O)*; OtBu = CC(C)(C)O*
Metric: GI50

[[record]]
compound = "O=[N+]([O-])C(=C(Nc1ccccc1)Nc1ccccc1)C(Cl)=C(Cl)Cl"
metric = "GI50"
reported_value = "21.9 µM (inactive)"

[[record]]
compound = "N=c1c2ccccc2nc2oc3ccccc3n12"
metric = "GI50"
reported_value = "23.2 µM (inactive)"


State recorded GI50 for all listed compounds.
1. CC(C)(C)OC(=O)CC(NC(=O)OC(C)(C)C)C(=O)NC(Cc1ccccc1)C(N)=O (stereo not given) (Boc-Asp(OtBu)-Phe-NH2; configuration not given here)
2. CCOc1ccc(N/C(Cl)=C(Cl)\C(=C(\Nc2ccc(OCC)cc2)n2nnc3ccccc32)[N+](=O)[O-])cc1
3. COc1ccc(-c2cc(O)c3c(C)ccnc3n2)cc1

**A:**
1. > 100 µM (inactive)
2. 33.1 µM (inactive)
3. 20.7 µM (inactive)

----------
System: A549
Test Protocol: NCI tumour cell line growth inhibition, 48 h
Calls of active or inactive are those of the source. Cut-off read from the data, not from the text of the source: active = GI50 up to about 1.1 µM and inactive = higher.
The reply should be one of these categories: active, inactive

Take a look at these entries with their results.
[[record]]
molecule = "CCN(CC)CCNc1n[n+]([O-])c2cc([N+](=O)[O-])ccc2[n+]1[O-]"
subject_of_test = "A549"
class_name = "active"

[[record]]
molecule = "CN(C(=O)CCC(=O)O)c1ccccc1C(=O)O"
subject_of_test = "A549"
class_name = "inactive"

[[record]]
molecule = "CN(C)CCCNC(=O)c1cc(NC(=O)c2cc(NC(=O)c3cc(NC(=O)CCCn4ccc(CO)c4CO)cn3C)cn2C)cn1C"
subject_of_test = "A549"
class_name = "inactive"


**Q:** For Cc1nc2ccc(S(=O)(=O)O)cc2c(=O)n1-c1ccc(C(=O)NN2C(=O)C(Cl)C2c2cccs2)cc1 (stereo not given) , which call appears in the assay record?
**A:** inactive

**Q:** For COC(=O)C1C(=O)CC2CCCCC21 (stereo not given) , which call appears in the assay record?
**A:** inactive

----------
Answer each item with its documented GI50.
Tested on: DLD-1
Test Protocol: NCI tumour cell line growth inhibition, 48 h
Calls of active or inactive are those of the source. Rule as the data show it: active = GI50 up to about 1.1 µM and inactive = higher.

[[record]]
compound = "O=C1/C(=C/c2ccc(Br)cc2)CCC/C1=C\\c1ccc(Br)cc1"
reported_value = "5.04 µM (inactive)"

[[record]]
compound = "c1ccc([B-]23Oc4ccccc4[NH+]2c2ccccc2O3)cc1 (centres undefined)"
reported_value = "46 µM (inactive)"

[[record]]
compound = "CC(C)CC(=O)N1CCN(C(=O)CC(C)C)c2ccccc21"
reported_value = "> 100 µM (inactive)"


State recorded GI50 for all listed compounds.
1. CCC/C=C\C=C\C1(NS(=O)(=O)c2ccc(C)cc2)CCC(C(C)(C)C)CC1 (centres undefined)
2. CC(C)C(=O)Nc1nc2[nH]cnc2c(=O)[nH]1
3. COC1C(CO)OC(n2c3c(Cl)cccc3c3c4c(c5c6cccc(Cl)c6[nH]c5c32)C(=O)NC4=O)C(O)C1O (centres undefined)
4. Cc1ccc(S(=O)(=O)CC(=O)CC(=O)C(=O)Nc2cccc(C(F)(F)F)c2)cc1
5. Nc1nc2[nH]cnc2c(=S)[nH]1 [THIOGUANINE]
6. O=C(O)COc1ccc(C(=O)/C(SS/C(C(=O)c2ccc(OCC(=O)O)c(Cl)c2Cl)=C2\C=C(c3ccc(Cl)cc3)SS2)=C2/C=C(c3ccc(Cl)cc3)SS2)c(Cl)c1Cl

**A:**
1. 19.4 µM (inactive)
2. > 100 µM (inactive)
3. 0.568 µM (active)
4. > 100 µM (inactive)
5. 0.962 µM (active)
6. 11.6 µM (inactive)

----------
Tested on: SK-MEL-2
Test Protocol: NCI tumour cell line growth inhibition, 48 h
Calls of active or inactive are those of the source. Rule as the data show it: active = GI50 up to about 1.1 µM and inactive = higher.
The reply should be one of these categories: Yes = active, No = inactive

Take a look at these entries with their results.
[[record]]
chemical_string = "O=C1c2cccc(O)c2C(=O)c2c(O)cc(CO)cc21"
class_name = "No"

[[record]]
chemical_string = "Cc1cnc2nc(-c3cccc4ccccc34)cc(O)c2c1"
class_name = "Yes"

[[record]]
chemical_string = "CCCCCCc1cc2cc(C(=O)Nc3cccc(F)c3)c(=N)oc2cc1O"
class_name = "No"

[[record]]
chemical_string = "[O-][n+]1onc(-c2ccccc2)c1CN1CCOCC1"
class_name = "No"


**Q:** For "O=C1O/C(=C(/Br)c2ccc(Cl)c(Cl)c2)c2ccccc21" , which call appears in the assay record?
**A:** No

----------
Test system: 786-0
Test Protocol: NCI tumour cell line growth inhibition, 48 h
Active and inactive are the calls of the source. No stated cut-off is given here; in the data, active = GI50 up to about 1.1 µM and inactive = higher.
The reply should be one of these categories: active, inactive

Take a look at these entries with their results.
[[record]]
compound = "COC(=O)c1ccccc1C1CN=NC12Cc1ccccc1C2=O (stereo not given)"
class_name = "inactive"

[[record]]
compound = "Cc1cccc(NC(=O)CC#N)c1Cl"
class_name = "inactive"

[[record]]
compound = "O=C(O)c1cc(-c2ccc3c(O)ccc(O)c3c2)ccc1O"
class_name = "inactive"


In the following, a different compound is considered.
**Q:** For CCOc1ccccc1N1C(=O)C(=O)C(c2nc3ccccc3o2)/C(=N\N)C1=O (stereo not given) , which call appears in the assay record?
**A:** inactive

----------
Tested on: MDA-MB-231
Test Protocol: NCI tumour cell line growth inhibition, 48 h
The source made the active and inactive calls. Rule as the data show it: active = GI50 up to about 1.1 µM and inactive = higher.
The reply should be one of these categories: t for active, f for inactive

[[record]]
compound = "CC(C)C1OC(=O)C(Cc2ccccc2)N(C)C(=O)C(C(C)C)OC(=O)C(Cc2ccccc2)N(C)C(=O)C(C(C)C)OC(=O)C(Cc2ccccc2)N(C)C1=O (centres undefined)"
class_name = "f"

[[record]]
compound = "COc1cc(OC)cc(OCc2nc3cc(C(F)(F)F)ccc3nc2-c2ccccc2)c1"
class_name = "f"

[[record]]
compound = "CC(=O)OC12c3ccccc3-c3ccccc3C1C(C(=O)O)C2C(=O)O (centres undefined)"
class_name = "f"

[[record]]
compound = "COC1C(CO)OC(n2c3c(Cl)cccc3c3c4c(c5c6cccc(Cl)c6[nH]c5c32)C(=O)NC4=O)C(O)C1O (centres undefined)"
class_name = "t"

[[record]]
compound = "CN(C)S(=O)(=O)n1ccnc1"
class_name = "f"


**Q:** For "C[n+]1c(-c2ccc(/C=N\Nc3ccnc(N/N=C/c4ccc(-c5cn6ccsc6[n+]5C)cc4)n3)cc2)cn2ccsc21" , which call appears in the assay record?
**A:** f

**Q:** For "[O-][n+]1onc(-c2ccccc2)c1CN1CCOCC1" , which call appears in the assay record?
**A:** f

**Q:** For "CCOC(=O)NC(Nc1ncccn1)(C(F)(F)F)C(F)(F)F" , which call appears in the assay record?
**A:** f

**Q:** For "Cc1ccc2c(c1C)-c1c(ccc(C)c1C)C(=O)C2=O" , which call appears in the assay record?
**A:** f

----------
Tested on: OVCAR-4
Test Protocol: NCI tumour cell line growth inhibition, 48 h
Calls of active or inactive are those of the source. Rule as the data show it: active = GI50 up to about 1.1 µM and inactive = higher.
Answer each item with its documented GI50.

In the examples that follow, each entry is paired with its recorded GI50.
[[record]]
compound = "Clc1ccccc1C(n1cc(Br)cn1)n1cc(Br)cn1"
subject_of_test = "OVCAR-4"
metric = "GI50"
reported_value = "> 100 µM (inactive)"

[[record]]
compound = "Cc1ccc(NC(=O)C2C3C=CC(O3)C2C(=O)O)cc1 (configuration not stated)"
subject_of_test = "OVCAR-4"
metric = "GI50"
reported_value = "> 100 µM (inactive)"

[[record]]
compound = "CCNC1=Nc2ccc(Cl)cc2C(c2ccccc2)=NN1"
subject_of_test = "OVCAR-4"
metric = "GI50"
reported_value = "31.6 µM (inactive)"

[[record]]
compound = "CN(C)c1ccc(/N=N/c2ccncc2)cc1"
subject_of_test = "OVCAR-4"
metric = "GI50"
reported_value = "48.1 µM (inactive)"

[[record]]
compound = "CCN(CC)CCCCC1CCN(CC(=O)N2CC(C)C(=O)Nc3ccccc32)CC1 (configuration not stated)"
subject_of_test = "OVCAR-4"
metric = "GI50"
reported_value = "> 100 µM (inactive)"


State recorded GI50 for all listed compounds.
1. CN1CC(=O)N(C)c2[nH]cnc2C1=O
2. O=C(O)/C(=C/c1ccccc1)c1ccccc1
3. O=[N+]([O-])c1c(/C=N/c2ccccc2)oc(-c2ccc3c(c2)OCO3)c1-c1ccc2c(c1)OCO2
4. c1ccc(C2(c3cc4ccccc4[nH]3)OCCO2)nc1
5. COc1ccc2cc1Oc1ccc(cc1)CC1c3cc(c(OC)cc3CCN1C)Oc1c3c(cc4c1C(C2)N(C)CC4)OCO3 (configuration not stated)
6. CC(=O)OC12c3ccccc3-c3ccccc3C1C(C(=O)O)C2C(=O)O (configuration not stated)
7. Cn1c(=O)c2nc3nnc(C#N)c(N)n3c2n(C)c1=O

**A:**
1: > 100 µM (inactive); 2: > 100 µM (inactive); 3: > 100 µM (inactive); 4: > 100 µM (inactive); 5: 4.58 µM (inactive); 6: > 10 µM (inactive); 7: > 100 µM (inactive)

State recorded GI50 for all listed compounds.
1. CC1C(=O)C(C)C(c2ccco2)N(N=O)C1c1ccco1 (configuration not stated)
2. CC(C)=CC1C(C(=O)OCc2cc3c(cc2Cl)OCO3)C1(C)C (configuration not stated)
3. O=C1C=CC(CC(=O)c2ccc3ccccc3c2)O1 (configuration not stated)

**A:**
["> 100 µM (inactive)", "49.8 µM (inactive)", "24.9 µM (inactive)"]

State recorded GI50 for all listed compounds.
1. O=[N+]([O-])/C(C(Cl)=C(Cl)Cl)=C(/Br)SCc1ccccc1
2. Nc1nc2ncn(CCO)c2c(=S)[nH]1
3. C=C1C(=O)OC2C[C@@]3(C)CCCC(=C)C3CC12 (some centres not stated)
4. CC(=O)Nc1ccc(NC(=O)c2c(Cl)c(Cl)c(Cl)c(Cl)c2-c2nc3ccccc3[nH]2)cc1
5. CN(C)c1ccc(Cc2cc(C(C)(C)C)cc(C(C)(C)C)c2O)cc1
6. O=C(N/C(=C\NC1=NCCS1)C(=O)N1CSC[C@@H]1C(=O)O)c1ccccc1
7. CC1(C)CCC2=C(O1)/C(=N\Nc1ccc(F)cc1)c1ccccc1C2=O

**A:**
1: 3.3 µM (inactive); 2: > 100 µM (inactive); 3: 13.4 µM (inactive); 4: 45.2 µM (inactive); 5: 21.3 µM (inactive); 6: > 100 µM (inactive); 7: 34.4 µM (inactive)
